The reported numbers originate from patent EP4656642A1.

- test-target: UniProt P03372
- Sequence (P03372 whole entry): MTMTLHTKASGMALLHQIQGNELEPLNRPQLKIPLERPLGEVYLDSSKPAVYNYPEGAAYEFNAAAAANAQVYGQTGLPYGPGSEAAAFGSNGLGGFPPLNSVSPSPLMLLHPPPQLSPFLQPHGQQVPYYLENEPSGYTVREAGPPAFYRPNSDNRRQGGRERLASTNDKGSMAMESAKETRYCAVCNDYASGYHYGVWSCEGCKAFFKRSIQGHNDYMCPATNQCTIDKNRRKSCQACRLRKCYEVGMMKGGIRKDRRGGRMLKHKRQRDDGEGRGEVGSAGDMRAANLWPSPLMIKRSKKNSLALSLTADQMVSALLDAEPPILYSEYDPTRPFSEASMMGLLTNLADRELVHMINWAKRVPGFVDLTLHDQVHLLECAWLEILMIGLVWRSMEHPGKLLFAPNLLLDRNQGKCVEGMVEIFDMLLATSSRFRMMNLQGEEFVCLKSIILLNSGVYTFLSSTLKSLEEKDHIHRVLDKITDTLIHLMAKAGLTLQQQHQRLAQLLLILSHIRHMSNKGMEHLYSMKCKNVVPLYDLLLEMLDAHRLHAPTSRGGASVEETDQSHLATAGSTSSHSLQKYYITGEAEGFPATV
- procedure-summary: Degradation of ERα in MCF-7 cells (immunoblotting, 4 h)
- Assay type: cell-based
- test-context: 10nM compound
parameter: Degradation rate (%) of ERα in MCF-7 cells

molecule: O=C1CCC(N2Cc3c(ccc4c3OCC43CCN(C(=O)CN4CC5(CCN(c6ccc([C@@H]7c8ccc(O)cc8CC[C@@H]7c7ccccc7)cc6)CC5)C4)CC3)C2=O)C(=O)N1 (stereo partly drawn) [K8]
test-target: UniProt P03372
measured-value: 64
//
molecule: O=C1CCC(N2Cc3cc4c(cc3C2=O)CCC2(CN(CC3CCN(C(=O)C5CCN(c6ccc([C@@H]7c8ccc(O)cc8CC[C@@H]7c7ccccc7)cc6)CC5)CC3)C2)O4)C(=O)N1 (stereo partly drawn) [K40]
test-target: UniProt P03372
measured-value: 45
//
molecule: O=C1CCC(N2Cc3cc4c(cc3C2=O)CCC2(CN(CC3CCC5(CC3)CCN(c3ccc([C@@H]6c7ccc(O)cc7CC[C@@H]6c6ccccc6)cc3)CC5)C2)O4)C(=O)N1 (stereo partly drawn) [A38]
test-target: UniProt P03372
measured-value: -24
//
molecule: O=C1CCC(N2C(=O)c3ccc4c(c3C2=O)OCC42CCN(C3CC4(C3)CN(c3ccc([C@@H]5c6ccc(O)cc6CC[C@@H]5c5ccccc5)cc3)C4)CC2)C(=O)N1 (stereo partly drawn) [L19]
test-target: UniProt P03372
measured-value: 14
//
molecule: O=C1CCC(N2Cc3c(ccc4c3OCC43CCN(C4CCC5(CC4)CCN(c4ccc(C6=C(c7ccc(Cl)cc7Cl)CCCc7cc(C(=O)O)ccc76)cc4)CC5)CC3)C2=O)C(=O)N1 (stereo not drawn) [F11]
test-target: UniProt P03372
measured-value: 43
//
molecule: O=C1CCC(N2C(=O)c3cc4c(cc3C2=O)OC2(CCN(C3CC5(CCN(c6ccc([C@@H]7c8ccc(O)cc8CC[C@@H]7c7ccccc7)cc6)CC5)C3)CC2)C4)C(=O)N1 (stereo partly drawn) [K1]
test-target: UniProt P03372
measured-value: -3
//
molecule: O=C1CCC(N2Cc3c(ccc4c3OCC43CCN(C(=O)CN4CCC(OC5CCN(c6ccc([C@@H]7c8ccc(O)cc8CC[C@@H]7c7ccccc7)cc6)CC5)CC4)CC3)C2=O)C(=O)N1 (stereo partly drawn) [K47]
test-target: UniProt P03372
measured-value: 80
//
molecule: O=C1CCC(N2Cc3c(ccc4c3OCC43CCN(C(=O)C4CCN(CC5CCN(c6ccc([C@@H]7c8ccc(O)cc8CC[C@@H]7c7ccccc7)cc6)CC5)CC4)CC3)C2=O)C(=O)N1 (stereo partly drawn) [K34]
test-target: UniProt P03372
measured-value: 76
//
molecule: C[C@@H]1Cc2c([nH]c3ccccc23)[C@@H](c2c(F)cc(N3CCC(C(=O)N4CCC(N5CCC6(CC5)COc5c6ccc6c5CN(C5CCC(=O)NC5=O)C6=O)[C@H](F)C4)CC3)cc2F)N1CC(F)F (stereo partly drawn) [D9]
test-target: UniProt P03372
measured-value: 55
//
molecule: O=C1CCC(N2Cc3c(ccc4c3OCC43CCN(C4CC5(CCN(c6ccc([C@@H]7c8ccc(O)cc8CC[C@@H]7c7ccccc7)cc6)CC5)C4)CC3)C2=O)C(=O)N1 (stereo partly drawn) [L16]
test-target: UniProt P03372
measured-value: 51
//
molecule: O=C1CCC(N2Cc3c(ccc4c3OC3(CC4)CCN(C4CCN(C5CN(c6ccc([C@@H]7c8ccc(O)cc8CC[C@@H]7c7ccccc7)cc6)C5)CC4)CC3)C2=O)C(=O)N1 (stereo partly drawn) [A60]
test-target: UniProt P03372
measured-value: -14
//
molecule: CC1(C(=O)N2CCC(N3CCC4(CC3)COc3c4ccc4c3CN(C3CCC(=O)NC3=O)C4=O)CC2)CCN(c2ccc([C@@H]3c4ccc(O)cc4CC[C@@H]3c3ccccc3)cc2)CC1 (stereo partly drawn) [N1]
test-target: UniProt P03372
measured-value: 68
//
molecule: O=C1CCC(N2Cc3cc4c(cc3C2=O)C2(CCN(CC3CCN(c5ccc([C@@H]6c7ccc(O)cc7CC[C@@H]6c6ccccc6)cc5)CC3)CC2)CO4)C(=O)N1 (stereo partly drawn) [H6]
test-target: UniProt P03372
measured-value: 7
//
molecule: O=C1CCC(N2Cc3cc4c(cc3C2=O)OC2(CC4)CCN(CC3CCN(c4ccc(C5c6ccc(O)cc6CCC5c5ccccc5)cc4)C3)CC2)C(=O)N1 (stereo not drawn) [B2]
test-target: UniProt P03372
measured-value: -26
//
molecule: O=C1CCC(N2Cc3c(ccc4c3OCC43CCN(C(=O)[C@H]4C[C@@H](OC5CCN(c6ccc([C@@H]7c8ccc(O)cc8CC[C@@H]7c7ccccc7)cc6)CC5)C4)CC3)C2=O)C(=O)N1 (stereo partly drawn) [H61]
test-target: UniProt P03372
measured-value: 40
//
molecule: O=C1CCC(N2Cc3c(ccc4c3OCC43CCN(C(=O)CN4CCN(C(=O)C5CCN(c6ccc([C@@H]7c8ccc(O)cc8CC[C@@H]7c7ccccc7)cc6)CC5)CC4)CC3)C2=O)C(=O)N1 (stereo partly drawn) [K43]
test-target: UniProt P03372
measured-value: 69
//
molecule: O=C1CCC(N2Cc3c(ccc4c3OCC43CCN(C4CN(C(=O)C5CCN(c6ccc([C@@H]7c8ccc(O)cc8CC[C@@H]7c7ccccc7)cc6)CC5)C4)CC3)C2=O)C(=O)N1 (stereo partly drawn) [D4]
test-target: UniProt P03372
measured-value: 69
//
molecule: O=C1CCC(N2Cc3c(ccc4c3OCC43CCN(C4CN(C5CCN(c6ccc([C@@H]7c8ccc(O)cc8CC[C@@H]7c7ccccc7)cc6)CC5)C4)CC3)C2=O)C(=O)N1 (stereo partly drawn) [A58]
test-target: UniProt P03372
measured-value: 69
//
molecule: O=C1CCC(N2Cc3c(ccc4c3OCC43CCN(c4ccc(C(=O)N5CCN(c6ccc([C@@H]7c8ccc(O)cc8CC[C@@H]7c7ccccc7)cc6)CC5)cn4)CC3)C2=O)C(=O)N1 (stereo partly drawn) [J2]
test-target: UniProt P03372
measured-value: 41
//
molecule: O=C1CCC(N2Cc3c(ccc4c3OCC43CCN(CC(=O)N4CCC5(CCN(c6ccc([C@@H]7c8ccc(O)cc8CC[C@@H]7c7ccccc7)cc6)CC5)C4)CC3)C2=O)C(=O)N1 (stereo partly drawn) [A73]
test-target: UniProt P03372
measured-value: 72
//
molecule: O=C1CCC(N2Cc3c(ccc4c3OCC43CCN(C4CCN(C(=O)C5CCN(c6ccc(C7c8ccc(O)cc8CCC7c7ccccc7)cc6)CC5)C(C(=O)N5CCCC5)C4)CC3)C2=O)C(=O)N1 (stereo not drawn) [K30]
test-target: UniProt P03372
measured-value: 55
